The origin of these recorded values is ChEMBL document CHEMBL5352453.

# Test system: Trypanosoma cruzi
# Run description: Antitrypanosomal activity against Trypanosoma cruzi Tulahuen CL2 amastigotes expressing beta galactosidase infected in human MRC5 cells assessed as reduction in parasite burden using chlorophenol red beta-D-galactopyranoside as substrate and measured after 7 days by spectrophotometric analysis
# Assay type: functional, organism-based
# Test parameters: Tulahuen CL2, MRC5, 168 h
Endpoint name: IC50

I would be grateful if you could share the reported IC50 for CCCn1c(NC(=O)Cc2ccc(Cl)cc2)nc2cc(C(F)(F)F)ccc21 .
0.74 µM

Look up IC50 for this compound: CCCn1c(NC(=O)c2ccccn2)nc2cc(F)ccc21
1.1 µM

So what's the measured IC50 for this one? CCCn1c(CCNC(=O)Cc2ccc(Cl)cc2)nc2ccccc21
33 µM

State the recorded IC50 for this entry: CCCn1c(NC(=O)Cc2ccc(F)cc2)nc2ccc(C(=O)N3CCOCC3)cc21
35 µM

# input compound: O=C(Nc1nc2cc(F)cnc2n1CC(F)(F)F)c1ccc(C(F)(F)F)nc1 ; wanted: its IC50
0.15 µM

Looking for the measured IC50 of CCCn1c(NC(=O)Cc2ccc(Cl)cc2)nc2ccc(F)cc21 , can you help?
0.56 µM

Consider the compound shown here: CCCn1c(NC(=O)Cc2ccc(F)cc2)nc2c(F)cccc21 What is its recorded IC50?
> 64 µM

Item Cc1cc(C(=O)Nc2nc3ccc(C#N)cc3n2CC(F)(F)F)nn1C has what recorded IC50?
64 µM

Any idea what IC50 was measured for O=C(Nc1nc2cncnc2n1CC(F)(F)F)c1cc(C(F)(F)F)n[nH]1 ?
7.5 µM

Any idea what IC50 was measured for N#Cc1ccc2nc(NC(=O)c3ccccn3)n(CC(F)(F)F)c2c1 ?
9.3 µM

Give the measured IC50 of CCCn1ccnc1NC(=O)Cc1ccc(F)cc1 .
35 µM

Fill blank: measured IC50 of the compound Cn1nccc1C(=O)Nc1nc2ccc(C#N)cc2n1CC(C)(C)O is ____.
13 µM

Can you share its IC50? I mean this compound: CCCn1c(NC(=O)Cc2cc(F)ccc2F)nc2cc(F)c(F)cc21
0.58 µM

# IC50 lookup, item N#Cc1ccc2nc(NC(=O)c3ccnc(C(F)(F)F)c3)n(CCF)c2c1
49 µM

What does the record list as IC50 for COCCn1c(NC(=O)c2ccnn2C)nc2ccc(C#N)cc21 ?
8.8 µM

I have this compound here, Cn1nc(C(F)(F)F)cc1C(=O)Nc1nc2cncnc2n1CC(F)(F)F , and I need its recorded IC50.
0.59 µM

Fill in: IC50 of N#Cc1ccc2nc(NC(=O)c3ccnc(C(F)(F)F)c3)n(CC(F)(F)F)c2c1 is ___
0.28 µM

May I ask what IC50 has been recorded for Cc1nc(C)c(C(=O)Nc2nc3ccc(C#N)cc3n2CC(F)(F)F)s1 ?
0.54 µM

Name the reported IC50 value associated with the compound Cn1nccc1C(=O)Nc1nc2ccc(C#N)cc2n1CC(F)F
2.4 µM

Give the measured IC50 of O=C(Nc1nc2ccc(F)cc2n1C1CC1)c1cccnc1 .
34 µM

For the compound CC(C)(C)Cn1c(NC(=O)c2cc(C(F)(F)F)n[nH]2)nc2cc(C#N)cnc21 , what IC50 is on record?
1.5 µM

# get_value(readout='IC50', item= N#Cc1ccc2nc(NC(=O)c3ccc(C(F)(F)F)nc3)n(CC(F)(F)F)c2c1 )
2.6 µM

I have this compound here, N#Cc1ccc2nc(NC(=O)c3cc(C(F)(F)F)n[nH]3)n(CC(F)F)c2c1 , and I need its recorded IC50.
0.49 µM

Entry Cn1nccc1C(=O)Nc1nc2cc(C#N)cnc2n1CC(C)(C)C has what IC50?
0.5 µM

I have this compound here, CN1CCC(n2c(NC(=O)c3ccnn3C)nc3ccc(C#N)cc32)CC1 , and I need its recorded IC50.
34 µM
